Hello, the source for this data is patent US9725467B2, in case you need it.

- experimental_system: UniProt:P00915
- Sequence (P00915 whole entry): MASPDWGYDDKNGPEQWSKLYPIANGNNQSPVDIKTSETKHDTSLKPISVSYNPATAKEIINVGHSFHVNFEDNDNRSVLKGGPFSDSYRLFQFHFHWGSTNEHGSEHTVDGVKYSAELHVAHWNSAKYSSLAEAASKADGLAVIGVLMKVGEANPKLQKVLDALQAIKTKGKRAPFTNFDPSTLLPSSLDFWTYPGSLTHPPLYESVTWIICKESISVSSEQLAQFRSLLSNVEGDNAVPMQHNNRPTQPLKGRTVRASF
- protocol_description: Isothermal titration calorimetry (ITC), CA I
- Type: binding
- condition_summary: 37° C., pH 7.0, read-out: Dissociation constants Kd to CA I
measurement_name: Kd (nM)

1) NS(=O)(=O)c1c(F)c(F)c(S(=O)(=O)CCO)c(NCc2ccccc2)c1F [Compound 10a]    130

====

- experimental_system: CA XII (Homo sapiens)
- Sequence (O43570 30-291 limits assumed): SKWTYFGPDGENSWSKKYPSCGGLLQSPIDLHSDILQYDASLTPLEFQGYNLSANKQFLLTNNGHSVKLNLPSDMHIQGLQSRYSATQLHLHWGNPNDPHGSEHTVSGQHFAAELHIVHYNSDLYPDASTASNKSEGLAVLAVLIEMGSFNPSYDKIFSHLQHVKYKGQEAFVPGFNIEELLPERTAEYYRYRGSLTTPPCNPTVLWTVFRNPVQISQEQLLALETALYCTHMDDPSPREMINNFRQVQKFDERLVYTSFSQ
- protocol_description: Isothermal titration calorimetry (ITC), CA XII
- Type: binding
- condition_summary: 37° C., pH 7.0, read-out: Dissociation constants Kd to CA XII
pKd: −log10 of the molar value.
measurement_name: pKd

1) NS(=O)(=O)c1c(F)c(F)c(S(=O)(=O)CCO)c(NCc2ccccc2)c1F [Compound 10a]    7.91
